Test: viability of PTEN-null HCT116 cells – cell-based, HCT116 clonal line, CellTiter-Glo, pilot screen (AID 824);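 further: 0% = 20 µM Hyamine control and 100% = vehicle cell control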
Settings: HCT116 PTEN-deleted viability, 60 h, at 10 µM, hits give low values
Inconclusive results are not listed.
Catalogue of molecules with associated viability
Assay Readout: viability (%)

>>> reading("CCOC(=O)N1CCN(C(=O)c2cnn(-c3ccccc3)c2NC(=O)c2ccccc2F)CC1")
102
>>> reading("CC(C)CCNC(=O)Cn1c(NCCC(C)C)nc2c1c(=O)n(C)c(=O)n2C")
92.8
>>> reading("COc1ccccc1CNC(=O)CCn1c(=O)[nH]c2ccsc2c1=O")
99.4
>>> reading("CC1Cc2ccccc2N1C(=O)CCn1c(=O)sc2ccccc21 (centres undefined)")
85.3
>>> reading("CCN1C(=O)C(O)(CC(=O)c2ccc3c(c2)OCCO3)c2ccccc21 (centres undefined)")
94
>>> reading("CSc1nc2ccccc2c(=O)n1N")
103
>>> reading("COc1ccc(NC(=O)NCCN2C(=O)C3C4C=CC(C4)C3C2=O)cc1 (centres undefined)")
94.5
>>> reading("COc1cccc(C2CC(=O)Nc3cc4c(cc32)OCCO4)c1OC(C)C (centres undefined)")
65
>>> reading("COc1ccc(NC(=O)CSc2nc3c(c(=O)n2-c2ccccc2OC)SCC3)cc1")
98.9
>>> reading("CC(C)OCCCNS(=O)(=O)c1ccc2c(c1)oc(=O)n2C")
97
>>> reading("COC(=O)Cn1cnc2c(nnn2-c2cccc(Cl)c2)c1=O")
99.4
>>> reading("CNC(=O)c1ccsc1NC(=O)c1ccccc1")
95.2
>>> reading("Cc1cc(C)n2nc(SCc3nc4ccccc4[nH]3)nc2n1")
95.5
>>> reading("CCOC(=O)Nc1ccc(S(=O)(=O)Nn2cnnc2)cc1")
108
>>> reading("COc1ccc(S(=O)(=O)Nc2ccc3c(c2)OCO3)cc1C(=O)O")
94.5
>>> reading("CCn1cc(C(=O)NCC2CCCO2)c(=O)c2cc(S(=O)(=O)N(C)C)ccc21 (centres undefined)")
94.9
>>> reading("Cc1cc(NC(=O)CS(=O)(=O)c2cn(Cc3ccccc3Cl)c3ccccc23)no1")
47.8
>>> reading("COc1ccccc1CC(=O)Nc1ccc(OC)c(OC)c1")
104
>>> reading("COc1cccc(CNC(=O)c2cc3ccccn3n2)c1")
96.8
>>> reading("CN(C)CCNc1oc(-c2ccccc2F)nc1C#N")
107
>>> reading("CCc1cc(=O)n2[nH]c(C)c(-c3ccccc3OC)c2n1")
105
>>> reading("Cc1nc2ccc(S(=O)(=O)NC(C(=O)N3CCn4c3nc3ccccc34)C(C)C)cc2s1 (centres undefined)")
97.2
>>> reading("CC(=O)C1C(c2ccc(Cl)cc2)NC(=O)NC1(O)C(F)(F)F (centres undefined)")
101
>>> reading("CCOC(=O)N1CCC(N2C(=O)c3ccccc3C2Nc2cc(Cl)c(OC)cc2OC)CC1 (centres undefined)")
76
>>> reading("CC1=C(C(=O)OC2CCCCCC2)C(c2ccc(C)o2)C2=C(CCCC2=O)N1 (centres undefined)")
78.8
>>> reading("COc1cccc(-c2nc3n(n2)C(c2ccccc2Cl)C(C(N)=O)=C(C)N3)c1 (centres undefined)")
82.2
>>> reading("COc1ccc(-c2[nH]c(-c3cccc(OC)c3)nc2SCC(=O)NCc2ccco2)cc1")
90.3
>>> reading("CCCn1c(CN2CCN(C(=O)c3ccco3)CC2)nc2c1c(=O)n(C)c(=O)n2C")
93.8
>>> reading("Cc1ccc(C)n1-c1ccc(N2CCOCC2)cc1")
8.6
